# TESTED_ON: T1, IL-6R-Fc 항원 (human, UniProt P08887 20-365, limits assumed)
# T1 construct: domain: IL-6R full domain; Made in-house as IL-6R-Fc; also called IL-6R full; IL-6R full domain인 단백질; not shown: Fc part (vector pYK 604)
# T1 sequence (looked up): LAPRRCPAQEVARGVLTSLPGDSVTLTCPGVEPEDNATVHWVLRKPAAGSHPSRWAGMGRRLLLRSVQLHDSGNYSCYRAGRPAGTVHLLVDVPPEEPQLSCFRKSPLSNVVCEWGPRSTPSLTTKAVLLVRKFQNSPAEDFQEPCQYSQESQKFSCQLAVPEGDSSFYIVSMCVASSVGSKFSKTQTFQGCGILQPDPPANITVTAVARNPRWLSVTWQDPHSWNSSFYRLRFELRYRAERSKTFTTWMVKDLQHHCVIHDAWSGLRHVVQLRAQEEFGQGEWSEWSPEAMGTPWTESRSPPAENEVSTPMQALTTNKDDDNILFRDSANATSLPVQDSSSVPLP
# ASSAY_INFO: ELISA; IL-6R coated 100 ng/well; IgG at 0.39063 nM; anti-Fab-HRP
PROPERTY_LABEL: OD 490 nm (OD490)
Value expressed in OD490; do not type the unit.

Give the measured OD 490 nm of 항 IL-6R 단클론 항체 A7 (antibody, V domains shown) VH: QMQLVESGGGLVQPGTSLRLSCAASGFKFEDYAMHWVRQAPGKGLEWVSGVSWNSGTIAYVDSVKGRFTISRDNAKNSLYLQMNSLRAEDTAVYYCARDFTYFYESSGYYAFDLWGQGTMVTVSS VL: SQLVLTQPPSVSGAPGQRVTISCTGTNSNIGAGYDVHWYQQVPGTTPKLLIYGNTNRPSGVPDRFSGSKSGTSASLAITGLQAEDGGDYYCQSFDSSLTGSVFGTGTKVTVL .
0.618
